FYI, the data here is from ChEMBL document CHEMBL1131376.

Target: UniProt P08842
Sequence (whole entry): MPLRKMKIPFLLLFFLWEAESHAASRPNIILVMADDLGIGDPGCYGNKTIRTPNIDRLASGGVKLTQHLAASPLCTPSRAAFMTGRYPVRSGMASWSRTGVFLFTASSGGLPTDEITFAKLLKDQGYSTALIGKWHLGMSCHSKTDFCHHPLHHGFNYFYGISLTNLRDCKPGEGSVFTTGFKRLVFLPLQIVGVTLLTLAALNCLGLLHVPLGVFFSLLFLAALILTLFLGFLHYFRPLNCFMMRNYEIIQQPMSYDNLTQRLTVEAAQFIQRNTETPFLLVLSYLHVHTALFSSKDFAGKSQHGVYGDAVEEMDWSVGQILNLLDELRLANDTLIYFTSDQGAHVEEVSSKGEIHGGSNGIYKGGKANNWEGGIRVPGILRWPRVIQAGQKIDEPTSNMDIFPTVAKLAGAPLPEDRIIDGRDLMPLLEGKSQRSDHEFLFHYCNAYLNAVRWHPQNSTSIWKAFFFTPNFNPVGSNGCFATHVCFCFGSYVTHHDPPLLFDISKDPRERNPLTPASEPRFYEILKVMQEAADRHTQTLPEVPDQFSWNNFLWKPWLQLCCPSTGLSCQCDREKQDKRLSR
Assay: In vitro inhibition of Estrone Sulfatase in intact MCF-7 breast cancer cells at a concentration of 0.1 uM.
Type: cell-based
Details: MCF7
observation_type: inhibition (%)

entry_smiles | measured_on | measurement_units | reported
NS(=O)(=O)Oc1ccc2ccc(=O)oc2c1 | UniProt P08842 | % | 23.9
NS(=O)(=O)Oc1ccc2c(c1)CCC2=O | UniProt P08842 | % | 13.5
NS(=O)(=O)Oc1ccc2c(c1)C(=O)CC2 | UniProt P08842 | % | 33
NS(=O)(=O)Oc1ccc2c(c1)C(=O)CCC2 | UniProt P08842 | % | 10.4
NS(=O)(=O)Oc1ccc2c(c1)CCC=C2 | UniProt P08842 | % | 49
NS(=O)(=O)Oc1ccc2c(c1)OC(=O)CC2 | UniProt P08842 | % | 12

a. NS(=O)(=O)Oc1ccc2c(c1)OCC=C2
b. NS(=O)(=O)Oc1ccc2c(c1)CCCC2
c. COc1cc2ccc(=O)oc2cc1OS(N)(=O)=O
Problem: Place the items in sequence of falling inhibition. Provide the ranking by listing each label in its place in the requested order.
Solution: b, c, a

I. Cc1c(C)c2ccc(OS(N)(=O)=O)c(C)c2oc1=O
II. Cc1cc(=O)oc2cc(OS(N)(=O)=O)ccc12
Problem: # returns the entry with the larger inhibition; inputs I and II Which one? Tell me its label.
Solution: II
(II: 42.9%, I: 9.3%)

---

Target: Steryl-sulfatase (Homo sapiens) (UniProt P08842)
Sequence (whole entry): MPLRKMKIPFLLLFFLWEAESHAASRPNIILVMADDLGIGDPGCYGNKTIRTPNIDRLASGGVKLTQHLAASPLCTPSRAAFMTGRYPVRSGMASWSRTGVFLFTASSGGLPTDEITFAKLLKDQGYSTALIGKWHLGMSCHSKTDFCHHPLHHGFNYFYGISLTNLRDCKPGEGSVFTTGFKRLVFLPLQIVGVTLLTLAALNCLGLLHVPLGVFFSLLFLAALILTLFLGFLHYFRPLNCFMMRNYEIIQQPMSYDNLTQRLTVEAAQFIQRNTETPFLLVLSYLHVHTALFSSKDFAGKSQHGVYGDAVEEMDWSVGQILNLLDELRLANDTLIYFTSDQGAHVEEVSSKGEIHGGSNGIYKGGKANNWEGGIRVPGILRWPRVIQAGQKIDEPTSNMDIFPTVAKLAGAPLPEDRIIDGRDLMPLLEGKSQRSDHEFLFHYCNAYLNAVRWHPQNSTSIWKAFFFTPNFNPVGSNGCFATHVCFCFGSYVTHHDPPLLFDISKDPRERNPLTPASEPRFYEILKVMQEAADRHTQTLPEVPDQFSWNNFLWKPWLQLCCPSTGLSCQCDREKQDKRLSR
Assay: In vitro inhibition of Estrone Sulfatase in intact MCF-7 breast cancer cells at a concentration of 10 uM.
Type: cell-based
Conditions: MCF7
observation_type: inhibition (%)

a. NS(=O)(=O)Oc1ccc2c(c1)OC(=O)CC2
b. COc1cc2ccc(=O)oc2cc1OS(N)(=O)=O
Problem: Larger number for inhibition: a , or b ? When you have decided, please share the label of that item.
Solution: b
(b: 72.1%, a: 28.5%)
